Target: T1, SARS-CoV-2 receptor-binding domain (RBD), wild type (SARS-CoV-2, wild type (GenBank MN908947), UniProt P0DTC2)
T1 construct: also called WT
Assay: BLI
Details: both partners purified
Kd values by entry

Recorded results for 3 binders are shown here.
{"BINDER": "XGv013 (antibody, V domains shown) VH: EVQLVESGGGLVQPGGSLRLSCAASGITVSSNYMTWVRQAPGKGLEWVSVIYAGGSTFYADSVKGRFTISRDNSKNTLYLQMNSLRVEDTAVYYCARDLVDYGMDVWGQGTTVTVSS VL: DIQLTQSPSFLSASVGDRVTITCRASQGIASYLAWYQQKPGKAPKLLIYAASTLQSGVPTRFSGSGSGTEFTLTIRSLQPEDSATYYCQHPSGHPPTFGGGTKVEI", "READOUT_VALUE": "0.26 nM"}
{"BINDER": "XGv038 (antibody, V domains shown) VH: QVQLVESGGGVVQPGRSLRLSCAASGFTFNNYGIHWVRQAPGKGLEWVAVIWYDGTNKYYADSVKGRFTISRDNSKNTVYLQMNSLRAEDTAVYYCARDYEITMAAPDYWGQGTLVTVSS VL: DVVMTQSPLSLPVTLEQPASISCRSSQSLVSSDGNTYLNWFQQRPGQSPRRLIYKVSNRDSGVPDRFSGSGSGTDFTLKINRVEAEDVGIYYCMQGSHWPPTFGGGTKVEIK", "READOUT_VALUE": "0.43 nM"}
{"BINDER": "XGv030 (antibody, V domains shown) VH: EVQLVESGGGLVQPGGSLRLSCAASGFSFSTYSLNWVRQAPGKGLEWVSYISSSSITIYYAHSVKGRFTISRDDAKNSLYLQVNNLRDEDTAVYYCARVLGFSDYVWGSYQRGLYGMDVWGQGTTVSVSS VL: QSALTQPASVSGSPGQSIAISCTGTSSDVGGYDFVSWYQQHPGKAPKLLIYDVTNRPSGISNRFSGSKSGNTASLTISGLQTEDEADYYCSSFTSSNTLPFVFGTGTTVTVL", "READOUT_VALUE": "1.3 nM"}

q: // lookup Kd for XGv042 (antibody, V domains shown) VH: QITLKESGPTLVKPTQTLTLTCTFSGLSMTTSGVGVGWIRQPPGKALEWLALIYWDDDKRYSPFLKSRLTITKDTSKNQVVLTMTNMDPADTGTYFCAHHTIPSIFDHWGQGTLVTVSS VL: QSALTQPASVSGSPGQSITISCTATSSDVGVYNYVSWYQQYPGKAPRLIIFEVSNRPSGVSSRFSGSKSGYTASLTISGLQTDDEADYYCSSYTTTSTVFGGGTKLTVL
a: 0.16 nM
